Form field: koff (one value per entry).
Target system: T1, recombinant human IL4Rα-his protein (in house made) (human, UniProt P24394 26-232, limits assumed)
T1 construct: also called Human IL4Ra-his
Test details: SPR (Biacore), antibody captured, IL4Rα-his flowed
Express it in s⁻¹; write the number only.

I'd like to know its koff. The binder in question is huB8G11F2B7G5E8-V3 (antibody, human IgG4 S228P, kappa, V domains shown, Humanized, human IgG4/kappa; also called huBSG11F2B7G5E8-V3) VH: EVQLVQSGAEVKKPGATVKISCKASGFNIKDTYMHWVQQAPGKGLEWVGRIDPTNGYTIYASKFQGKATITADTSSNTAYMELSSLRSEDTAVYHCVSRRPWFAYWGQGTLVTVSS VL: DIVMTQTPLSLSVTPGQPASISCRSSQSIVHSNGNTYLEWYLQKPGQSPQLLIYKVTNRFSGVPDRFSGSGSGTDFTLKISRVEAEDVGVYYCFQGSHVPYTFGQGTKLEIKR 0.00199
